Measured SH2 binding enrichment by item
TARGET DESC: c-Src SH2
ASSAY PROCEDURE: SH2 binding enrichment of the phosphorylated peptide, bacterial display (enrichment ratio); higher = better substrate or ligand; peptides without Tyr show the background
Just the number, please, no unit attached.

As a guide, the following entries are already answered.
[
  {
    "PRIMARY SEQUENCE": "EKKDLYKAGEQ [CFH_Y1008_V1007L]",
    "TARGET DESC": "c-Src SH2",
    "METRIC NAME": "SH2 binding enrichment",
    "OBSERVED": 0.46
  },
  {
    "PRIMARY SEQUENCE": "QEKKGYFEDRC [GLUL_Y336_R341C]",
    "TARGET DESC": "c-Src SH2",
    "METRIC NAME": "SH2 binding enrichment",
    "OBSERVED": 0.589
  },
  {
    "PRIMARY SEQUENCE": "ILNANYMAKRL [GLDC_Y839]",
    "TARGET DESC": "c-Src SH2",
    "METRIC NAME": "SH2 binding enrichment",
    "OBSERVED": 0.461
  },
  {
    "PRIMARY SEQUENCE": "ARVDTYCRHNY [HLA-DRB1_Y107_A103R]",
    "TARGET DESC": "c-Src SH2",
    "METRIC NAME": "SH2 binding enrichment",
    "OBSERVED": 0.752
  },
  {
    "PRIMARY SEQUENCE": "DGTIVYTGLET [USH2A_Y4487]",
    "TARGET DESC": "c-Src SH2",
    "METRIC NAME": "SH2 binding enrichment",
    "OBSERVED": 0.844
  },
  {
    "PRIMARY SEQUENCE": "ECKLFYSRKEG [PTPN11_Y263_L262F]",
    "TARGET DESC": "c-Src SH2",
    "METRIC NAME": "SH2 binding enrichment",
    "OBSERVED": 0.436
  }
]

Next item in the queue.
### Prompt Enter measured SH2 binding enrichment, system c-Src SH2, for the sequence shown: NFFDLYGGEKF [PTPN11_Y66_D61N_YF];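 also: peptide library displayed on the E. coli surface as eCPX fusions, selected cells deep-sequenced, score is each peptide's frequency after selection divided by its frequency in the input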
### Response 0.641

====

TARGET DESC: EPHB2 (UniProt P29323)
Sequence (P29323 whole entry, looked up): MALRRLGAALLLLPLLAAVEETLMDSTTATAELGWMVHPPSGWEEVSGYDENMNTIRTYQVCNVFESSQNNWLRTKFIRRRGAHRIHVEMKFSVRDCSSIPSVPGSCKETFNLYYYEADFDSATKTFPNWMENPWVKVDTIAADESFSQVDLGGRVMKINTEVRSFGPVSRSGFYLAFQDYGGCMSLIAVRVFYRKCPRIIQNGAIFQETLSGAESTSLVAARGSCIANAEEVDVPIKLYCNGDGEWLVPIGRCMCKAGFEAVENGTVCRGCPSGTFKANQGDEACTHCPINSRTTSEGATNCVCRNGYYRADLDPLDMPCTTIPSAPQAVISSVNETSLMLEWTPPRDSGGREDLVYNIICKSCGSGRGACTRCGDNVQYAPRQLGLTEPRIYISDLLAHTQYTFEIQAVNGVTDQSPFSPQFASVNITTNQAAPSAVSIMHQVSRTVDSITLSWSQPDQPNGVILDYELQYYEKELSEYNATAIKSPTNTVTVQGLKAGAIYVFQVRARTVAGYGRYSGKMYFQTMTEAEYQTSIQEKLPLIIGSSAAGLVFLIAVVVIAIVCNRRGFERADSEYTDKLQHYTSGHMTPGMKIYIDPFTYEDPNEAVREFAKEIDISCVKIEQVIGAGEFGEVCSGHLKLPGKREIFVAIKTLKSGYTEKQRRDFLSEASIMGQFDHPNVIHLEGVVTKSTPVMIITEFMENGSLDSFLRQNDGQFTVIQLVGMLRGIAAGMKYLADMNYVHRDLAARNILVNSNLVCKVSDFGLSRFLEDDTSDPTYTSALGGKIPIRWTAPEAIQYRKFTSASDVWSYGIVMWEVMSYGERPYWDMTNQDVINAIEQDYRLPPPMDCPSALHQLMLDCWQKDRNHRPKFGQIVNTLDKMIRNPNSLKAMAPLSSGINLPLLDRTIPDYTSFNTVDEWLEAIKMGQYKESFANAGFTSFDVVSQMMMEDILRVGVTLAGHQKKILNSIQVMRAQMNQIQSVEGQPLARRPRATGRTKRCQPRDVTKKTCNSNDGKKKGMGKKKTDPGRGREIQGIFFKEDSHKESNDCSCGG
ASSAY PROCEDURE: phosphorylation enrichment, bacterial display (enrichment ratio); higher = better substrate or ligand; peptides without Tyr show the background
Measured phosphorylation enrichment by item
Just the number, please, no unit attached.

[
  {
    "PRIMARY SEQUENCE": "LSALDYKIFYY [WDPCP_Y210]",
    "phosphorylation enrichment": 0.602
  }
]

### Prompt Enter measured phosphorylation enrichment, system EPHB2 (UniProt P29323), for the sequence shown: FSQQTYCRVSN [ABCD1_Y180_Y181C]
### Response 2.1

### Prompt Enter measured phosphorylation enrichment, system EPHB2 (UniProt P29323), for the sequence shown: PPDGEYFTLQI [TP53_Y327_L323P]
### Response 1.14

### Prompt Enter measured phosphorylation enrichment, system EPHB2 (UniProt P29323), for the sequence shown: DCPASYKKKSM [PDGFRA_Y768_R764C]
### Response 0.189

### Prompt Enter measured phosphorylation enrichment, system EPHB2 (UniProt P29323), for the sequence shown: FSEVRYVKEPF [HIPK4_Y170_YF]
### Response 0.527

### Prompt Enter measured phosphorylation enrichment, system EPHB2 (UniProt P29323), for the sequence shown: FRKNTYNVKST [SYNE2_Y575_I574T_YF]
### Response 0.333

### Prompt Enter measured phosphorylation enrichment, system EPHB2 (UniProt P29323), for the sequence shown: EIIPFYGMSTY [FNDC3B_Y175]
### Response 0.681

### Prompt Enter measured phosphorylation enrichment, system EPHB2 (UniProt P29323), for the sequence shown: RMDGTYACSYT [FLNB_Y704]
### Response 0.85

### Prompt Enter measured phosphorylation enrichment, system EPHB2 (UniProt P29323), for the sequence shown: ETEMLYGSARR [PRC1_Y464_P468R]
### Response 0.451

### Prompt Enter measured phosphorylation enrichment, system EPHB2 (UniProt P29323), for the sequence shown: AALSAYAPQRP [PTPRN2_Y249_A251P]
### Response 0.527

### Prompt Enter measured phosphorylation enrichment, system EPHB2 (UniProt P29323), for the sequence shown: MVSLFYGTAIF [OR10C1_Y251_L255I]
### Response 0.666
